Test system: BT-549 breast
Assay: NCI tumour cell line growth inhibition, 48 h
valueKind: TGI (µM)
Report only the number, with the unit µM understood.

Challenge: Report TGI from BT-549 breast testing of `C=CC(=O)N1C/C(=C\c2ccc([N+](=O)[O-])cc2)C(=O)/C(=C/c2ccc([N+](=O)[O-])cc2)C1`
Response given: 0.567

Challenge: Report its TGI with BT-549 breast as the test system: `O=C(/C=C1\C(=O)N(Cc2ccccc2)c2ccccc21)c1ccc(OCCN2CCCCC2)cc1`
Response given: 4.05

* * *

Give measured TGI for each item. Keep answers brief.
System: UACC-62 melanoma
Test: NCI tumour cell line growth inhibition, 48 h

Challenge: Retrieve TGI measured for Cc1ccc(S(=O)(=O)OC(COC(=O)c2ccccc2)C(OS(=O)(=O)c2ccc(C)cc2)C(OS(=O)(=O)c2ccc(C)cc2)C(COC(=O)c2ccccc2)OS(=O)(=O)c2ccc(C)cc2)cc1 (stereo not given) and print it.
Response given: > 10 µM

Challenge: Return reported TGI. Input compound: CCCCCCCC/C=C1\CCC(CN2CCOCC2)C1=O (stereo not given)
Response given: 12.6 µM

Challenge: Give TGI for `C[C@H]1CNC(=O)c2cnn3ccc(nc23)N[C@H](C)c2cc(F)ccc2O1`
Response given: 39 µM

Challenge: # return recorded TGI for entry Cc1ccc(S(=O)(=O)N/N=C2\CC3CC4CCC2C4C3)cc1 (stereo not given)
Response given: > 100 µM

Challenge: For the compound Cc1ccc(S(=O)(=O)C2=c3nc4ccccc4cc3=C3C(=O)c4ccccc4C(=O)C32)cc1 (stereo not given) , give its reported TGI.
Response given: > 100 µM

Challenge: Annotate the compound `C=C1SC(=Nc2ccccc2Cl)N(C(=O)c2sc3ccccc3c2Cl)C12CCCCC2` with its measured TGI.
Response given: > 100 µM

Challenge: Specify reported TGI for the compound shown: `O=C(c1ccco1)c1c(C(F)(F)F)n([O-])c2cc(C(F)(F)F)ccc2[n+]1=O`
Response given: 2.89 µM

Challenge: Specify TGI for CN(C)CCCC1(c2ccc(F)cc2)OCc2cc(-c3cc4ccccc4s3)ccc21 (stereo not given) and stop.
Response given: 3.24 µM

Challenge: # return recorded TGI for input `CCCN(CCC)C(=O)c1nc(N)nc(-c2ccc(OC)cc2)c1-c1ccc(OC)cc1`
Response given: > 100 µM

Challenge: Give the measured TGI for C=CC(C)C1(CCCOCc2ccccc2)C(=S)N2CCC3(CC24CCCC14)OCCO3 (stereo not given)
Response given: > 100 µM

Challenge: Kindly indicate its recorded TGI. Item: CC1(C)C2CCC1C(=O)[C@@]1(C=CC(=O)CC1)C2 (stereo not given in full)
Response given: > 100 µM

Challenge: Look up TGI of C#CC1(O)CCC2[C@@H]3CCc4cc(Oc5nc(F)nc(-c6c7ccccc7c(SCC)n6CCC)n5)ccc4C3CC[C@@]21C (stereo not given in full) and report it.
Response given: > 100 µM

Challenge: Given the compound `CN(O)C(=O)CCCC(=O)NCC(C)(C)CNC(=O)CCCC(=O)N(C)O` , write its reported TGI.
Response given: > 100 µM

Challenge: Retrieve TGI measured for `Cc1cc(OCCOCCC(F)(F)P(=O)(O)O)ccc1CCc1cnc2c(N)nc3cc(CCC(=O)O)ccc3c2c1` and print it.
Response given: > 100 µM

Challenge: Give the reported value of TGI for this record: O=CN1N=C(c2cccc(Nc3ccnc4cc(Cl)ccc34)c2)CC1c1ccccc1 (stereo not given)
Response given: 21.8 µM

Challenge: Output TGI of `CCCOP(=O)(OCCC)OC(C(F)(F)F)C(F)(F)F`
Response given: > 100 µM

Challenge: Report TGI, nothing else, for this compound: `C=CCN1/C(=C2\SC(=S)N(c3ccc(C)cc3)C2=O)Sc2c1ncn(C)c2=O`
Response given: > 100 µM

Challenge: Provide only the value of recorded TGI for `O=C(C/C(=N/O)C(F)(F)F)c1cccs1`
Response given: > 100 µM

Challenge: Quickly give me recorded TGI for `Cc1ccc2nc3cc(C)c(=O)cc-3sc2c1`
Response given: 82.8 µM

Challenge: For C1CN(P2(N3CC3)=NP(N3CC3)(N3CC3)=NP(N3CC3)(N3CC3)=N2)CCO1 (stereo not given) , write its TGI.
Response given: > 100 µM

* * *

Test system: COLO 205 colon
Test: NCI tumour cell line growth inhibition, 48 h
valueKind: TGI

Challenge: Report TGI for `Cc1[nH]c(N)nc(=S)c1CCC(=O)O`
Response given: > 100 µM

Challenge: Note TGI for the compound shown: `COC1=C(Cl)C(=O)c2c(O)ccc(O)c2C1=O`
Response given: 0.53 µM

Challenge: # return recorded TGI for input NC(=O)c1cccc(OCC(O)CO)c1 (stereo unspecified)
Response given: > 100 µM

Challenge: Respond only with TGI recorded for COC(=O)C(CC(=O)Nc1ccc(Cl)c(Cl)c1)C(=O)C(=O)Nc1ccc(Cl)c(Cl)c1 (stereo unspecified)
Response given: > 100 µM

Challenge: Give TGI for `CCOC(=O)/C=C(\C(=O)OCC)n1cc(Cl)c(=O)n(CC(=O)OCC)c1=O`
Response given: 1.86 µM

Challenge: Return TGI (reported value) for this compound: `COC(=O)C1=C(C(=O)OC)C(N(C)C)C(C(=O)OC)=C(C(=O)OC)S1`
Response given: > 100 µM

Challenge: Quickly give me recorded TGI for CC1(C)C2CCC1C(=O)[C@@]1(C=CC(=O)CC1)C2 (stereo partly specified)
Response given: > 100 µM

Challenge: Provide only the value of recorded TGI for CNC(=O)SCC(NC(=O)CCC(N)C(=O)O)C(=O)NCC(=O)O (stereo unspecified)
Response given: > 100 µM

Challenge: Give TGI for the following compound: `COc1ccc(/C(C#N)=C/c2cc(OC)c(OC)c(OC)c2)cc1`
Response given: 64.8 µM

Challenge: Write down TGI measured for item `COC(=O)c1ccccc1/C=C1\Cc2ccc3c(c2C1=O)CCCC3`
Response given: > 100 µM

Challenge: Write down TGI measured for item `O=C(Nc1ccccc1Cl)c1ccc([N+](=O)[O-])cc1`
Response given: > 100 µM

* * *

Tested on: U251 CNS
Pick one and only one: Yes for active, No for inactive

Challenge: Would you mind telling me which call this test gave C[C@]12CC[C@H]3[C@@H](CC4SC(N)=NC45C/C(=N/NC(N)=O)CC[C@]35C)[C@@H]1CCC2=O (stereo partly drawn) ?
Response given: No

Challenge: Any idea what this test logged for `C[n+]1c2ccccc2nc2ccccc21` ?
Response given: No

Challenge: Answer briefly: the call reported for `CCCCCCCC(=O)SCC/C=C/[C@@H]1CC(=O)NCc2nc(cs2)C2=N[C@@](C)(CS2)C(=O)N[C@@H](C(C)C)C(=O)N1` in this assay.
Response given: Yes

Challenge: Hi, sorry to bother you, what did the test record for `COc1ccc(/C(C#N)=C/c2cc(OC)c(OC)c(OC)c2)cc1` ?
Response given: No

Challenge: Please indicate how the test categorized `O=C1C(=O)c2ccccc2C(O)=C1CCCc1ccc(C2CCCCC2)cc1` .
Response given: No

Challenge: Give the logged outcome of this assay for the following compound: CC(C)=CC(=O)N[C@H]1CC[C@]2(C)C3CC[C@]4(C)C(C(C)N(C)C)=CCC4C3CCC2[C@H]1O (stereo partly drawn)
Response given: No

Challenge: I would be grateful if you could indicate the recorded call for `N#C/C(=N\Nc1ccccc1)C(=O)Nc1cc(-c2ccccc2)nn1-c1ccccc1` .
Response given: No

Challenge: What is the recorded call for this compound in the test? `C=C1C(=O)O[C@H]2[C@H]1CC/C(COC(=O)CCCc1c[nH]c3ccccc13)=C\CC[C@@]1(C)O[C@@H]21`
Response given: No

* * *

Tested on: OVCAR-8 ovarian
Test: NCI tumour cell line growth inhibition, 48 h; in the data active = GI50 below about 0.43 µM; inactive = the rest
Pick one and only one: active, inactive

Challenge: Please indicate how the test categorized `COc1cc(C(=O)O[C@H](C(=O)NCCN(C)CCNC(=O)[C@@H](OC(=O)c2cc(OC)cc3c(C)cccc23)[C@]2(C)CO2)[C@]2(C)CO2)c2cccc(C)c2c1` .
Response given: active

Challenge: Tell me the assay call for CC([C@H]1CC=C2C3CCC4=C[C@@H](N(C)C)CC[C@]4(C)C3CC[C@@]21C)N(C)C (stereo not given in full) please.
Response given: inactive

Challenge: Give the logged outcome of this assay for the following compound: `COc1ccc(/C=C2\SC(=Nc3ccccc3)NC2=O)cc1`
Response given: inactive

Challenge: Short answer needed: outcome of this test for `O=C1C=Cc2c1ccc1ccccc21` ?
Response given: inactive

Challenge: // return assay outcome for `O=C(Nc1ccc(F)cc1)Nc1ccc(Br)c(C(F)(F)F)c1`
Response given: inactive

* * *

Tested on: MCF7 breast
Experiment: NCI tumour cell line growth inhibition, 48 h
valueKind: TGI

Challenge: Please tell me the measured TGI for Cc1ccc(S(=O)(=O)N/N=C2\CC3CC4CCC2C4C3)cc1 (stereo not given) ; system: MCF7 breast.
Response given: > 100 µM

Challenge: # lookup: MCF7 breast TGI, key = `COc1cc(C2C3=C(CCCC3=O)N(c3ccc(C)cc3)C3=C2C(=O)CCC3)c([N+](=O)[O-])cc1OC`
Response given: > 100 µM

Challenge: Fill: TGI (MCF7 breast) for this compound `Cc1[nH]c2ccccc2c1/C=N/NC(=O)c1cccc(I)c1`
Response given: 61.7 µM

Challenge: # return TGI for Nc1ccc(COC(O)CN2CCCCC2)cc1[N+](=O)[O-] (stereo not given) , test system: MCF7 breast
Response given: > 100 µM

Challenge: Look up and report TGI, with MCF7 breast as system, for CCCCc1ccc(Nc2nc(Cl)c3ccn(C4CC(Oc5ccc(C)cc5)C(COc5ccc(C)cc5)O4)c3n2)cc1 (stereo not given)
Response given: > 46.4 µM
